pKi: −log10 of the molar value.
// note: pKi values for UniProt:Q01726 were reported in different studies
Sequence (Q01726 whole entry): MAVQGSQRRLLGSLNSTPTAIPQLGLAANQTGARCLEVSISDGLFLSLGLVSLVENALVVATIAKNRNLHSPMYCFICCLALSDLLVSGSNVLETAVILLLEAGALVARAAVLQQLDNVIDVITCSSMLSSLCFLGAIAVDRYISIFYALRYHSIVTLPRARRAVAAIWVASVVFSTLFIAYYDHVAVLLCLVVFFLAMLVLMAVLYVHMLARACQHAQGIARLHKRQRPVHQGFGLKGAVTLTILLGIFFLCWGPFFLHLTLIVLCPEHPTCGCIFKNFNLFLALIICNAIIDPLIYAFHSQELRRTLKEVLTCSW
parameter: pKi

1. CNC(=O)[C@H](Cc1ccc2ccccc2c1)NC(=O)[C@H](CCCN=C(N)N)NC(=O)[C@H](CC[C@H](Cc1ccc(O)cc1)NC(C)=O)Cc1ccccc1
2. CC(=O)N[C@H](Cc1ccccc1)C(=O)N1C[C@H](OCc2ccc3ccccc3c2)C[C@@H]1CCCN=C(N)N
3. CNC(=O)[C@H](Cc1ccc2ccccc2c1)N1CCN(C(=O)[C@@H](Cc2ccc(F)cc2)NC(=O)[C@H](Cc2cnc[nH]2)NC(C)=O)[C@@H](CCCN=C(N)N)C1=O
Task: Parameters: sort_by = pKi; order = desc; input = items above. Would you mind listing the labels in the order requested?
Result: 3, 2, 1
(3: 8.70, 2: 6.33, 1: 5.07)
